# Study target: fusion protein PRC
# Sequence (chain, as listed by the source): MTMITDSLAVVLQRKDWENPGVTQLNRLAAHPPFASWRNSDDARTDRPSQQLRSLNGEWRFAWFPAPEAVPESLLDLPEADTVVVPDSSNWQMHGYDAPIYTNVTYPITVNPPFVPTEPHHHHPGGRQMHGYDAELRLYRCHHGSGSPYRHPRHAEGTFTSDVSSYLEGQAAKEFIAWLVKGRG
Assay readout: relative cleavage efficiency

[Q] // returns reported relative cleavage efficiency for input OmpT protease variant OmpT D97N (protein) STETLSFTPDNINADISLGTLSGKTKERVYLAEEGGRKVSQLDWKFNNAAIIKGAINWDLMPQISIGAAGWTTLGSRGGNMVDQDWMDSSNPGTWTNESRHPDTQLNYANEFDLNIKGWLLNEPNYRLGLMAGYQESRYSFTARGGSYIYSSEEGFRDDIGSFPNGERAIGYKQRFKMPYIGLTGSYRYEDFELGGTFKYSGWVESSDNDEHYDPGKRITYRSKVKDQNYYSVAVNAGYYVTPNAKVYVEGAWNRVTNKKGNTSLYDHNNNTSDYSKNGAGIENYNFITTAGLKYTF
[A] < 3%
